thermal shift delta Tm by entry:
tested on: LOC_OS07G07230-cb001; experiment: thermal shift delta Tm vs DMSO control; higher = stronger stabilization (binding); settings: 12.5 µM; protein concentration 2 µM;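 further: purified Escherichia coli-expressed rice kinase domain construct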
Please state the figure in °C; there is no need to write the unit.

Some compounds with recorded thermal shift delta Tm:
Cc1nc2c(-c3cnc(N)nc3)nc(N3CCOCC3)nc2n1C(C)C	-0.09
O=c1nc(N2CCOCC2)oc2c(-c3cccc4c3sc3ccccc34)cccc12	0.66
Cn1cc(-c2ccc3c(c2)CCN3C(=O)Cc2cccc(C(F)(F)F)c2)c2c(N)ncnc21	4.19
Cc1cc(Nc2nc(N[C@@H](C)c3ccc(F)cc3)c(C#N)cc2F)n[nH]1	0.12
CSc1cccc(Nc2ncc3cc(-c4c(Cl)cccc4Cl)c(=O)n(C)c3n2)c1	0.66
CC1=C(C(=O)Nc2ccc3[nH]ncc3c2)C(c2ccc(F)cc2)NC(=O)N1 (centres undefined)	0.55
CC(C)(C)c1cc(/C=C(\C#N)C(N)=S)cc(C(C)(C)C)c1O	0.65
CCn1nc(C2CCN(C(=O)CCO)CC2)nc1-c1cnc(N)c(-c2nnc(C(C)(C)C)o2)n1	0.4

Query string: Which value of thermal shift delta Tm has been reported for `O=C(Nc1nc2cccc(-c3ccc(CN4CCS(=O)(=O)CC4)cc3)n2n1)C1CC1` in the records?
Result string: 0.58

----------
system: LOC_OS02G45750-cb003; experiment: thermal shift delta Tm vs DMSO control; higher = stronger stabilization (binding); settings: 12.5 µM; protein concentration 2 µM
Assay metric: thermal shift delta Tm (°C)
Express your answer in °C, writing the number without its unit.

Example entries begin here.
Cc1cc(N2CCOCC2)cc2[nH]c(-c3c(NC[C@@H](O)c4cccc(Cl)c4)cc[nH]c3=O)nc12	3.33
CN(C)C/C=C/C(=O)Nc1cc2c(Nc3ccc(F)c(Cl)c3)ncnc2cc1O[C@H]1CCOC1	0.69
N#Cc1ccc2ncnc(NCCc3ccccc3)c2c1	1.15
CO[C@H]1C[C@@H]2CC[C@@H](C)[C@@](O)(O2)C(=O)C(=O)N2CCCC[C@H]2C(=O)O[C@H]([C@H](C)C[C@@H]2CC[C@@H](O)[C@H](OC)C2)CC(=O)[C@H](C)/C=C(\C)[C@@H](O)[C@@H](OC)C(=O)[C@H](C)C[C@H](C)/C=C/C=C/C=C/1C [Rapamycin (Sirolimus)]	0.22
Cc1c(NC(=O)OC[C@@H]2COCCN2)cn2ncnc(Nc3ccc4c(cnn4Cc4cccc(F)c4)c3)c12	0.67
Cc1n[nH]c2ncc(C(=O)N3CCC[C@H]3c3ccc(Cl)cc3)cc12	0.21

Query string: Query: thermal shift delta Tm; subject: `CCN1C(=O)CNc2ncc(-c3ccc(-c4nc[nH]n4)nc3C)nc21`
Result string: 1.71

----------
test system: LOC_OS02G54510-cb004; assay: thermal shift delta Tm vs DMSO control; higher = stronger stabilization (binding); details: 12.5 µM; protein concentration 2 µM
Some compounds, each annotated with its measured thermal shift delta Tm.
Express the result in °C but write the number alone.

Recorded results for 3 compounds are shown here.
CCOc1cc(N2CCC(O)CC2)ccc1Nc1ncc2c(n1)N(C)c1ccccc1C(=O)N2C	-0.02
CN1CCN(Cc2ccc(NC(=O)Nc3ccc(Oc4ccnc(N)n4)cc3)cc2C(F)(F)F)CC1	7.6
N#CC1(c2ccc(NC(=O)c3cccnc3NCc3ccncc3)cc2)CCCC1 [Apatinib]	1.36

Let's switch to this compound now.
Query string: thermal shift delta Tm lookup needed for O=C1CCc2c(Oc3ccc4c(c3)[C@@H]3[C@H](O4)[C@H]3c3nc4cc(C(F)(F)F)ccc4[nH]3)ccnc2N1 [Lifirafenib (BGB-283)] , thanks.
Result string: 5.22

----------
system: LOC_OS03G50450-cb001; assay: thermal shift delta Tm vs DMSO control; higher = stronger stabilization (binding); conditions: 12.5 µM; protein concentration 2 µM
In this section, each of the compounds is paired with its reported thermal shift delta Tm.
Give the number; °C is assumed, so skip it.

Observe how each entry below is paired with its result.
CCS(=O)(=O)N1CC(CC#N)(n2cc(-c3ncnc4[nH]ccc34)cn2)C1	1.09
CNS(=O)(=O)Nc1nccc(Cc2c(C)c3ccc(Oc4ncccn4)cc3oc2=O)c1F	0.4

Query string: May I ask what thermal shift delta Tm has been recorded for `CCn1c(=O)c(-c2ccc(-c3cncs3)cc2Cl)cc2cnc(Nc3ccc(N4CCN(C)CC4)cc3)nc21` ?
Result string: 1.1

Query string: Give its thermal shift delta Tm value. Item: O=C1c2c(O)cc(O)cc2OC(c2ccc(O)c(O)c2)C1O (centres undefined) [Taxifolin (Dihydroquercetin)]
Result string: 0.2

Query string: # thermal shift delta Tm lookup, item `Cc1ccc(S(=O)(=O)/C=C/C#N)cc1`
Result string: 0.08

Query string: What value of measured thermal shift delta Tm is listed for `Cc1c(C(=O)N2CCOc3ccc(-c4ccc(N)nc4)cc3C2)ccc(S(C)(=O)=O)c1F` ?
Result string: 0.12

Query string: Looking for the measured thermal shift delta Tm of `N#Cc1ccc2ncnc(NCCc3ccccc3)c2c1` , can you help?
Result string: 0.68

Query string: Recorded thermal shift delta Tm of `C[C@@H](Oc1cc(-n2cnc3ccc(CN4CCN(C)CC4)cc32)sc1C(N)=O)c1ccccc1C(F)(F)F` , please.
Result string: -0.03

----------
Readings of thermal shift delta Tm for the listed compounds
test system: LOC_OS06G16330-cb003; assay: thermal shift delta Tm vs DMSO control; higher = stronger stabilization (binding); details: 12.5 µM; protein concentration 2 µM
Sequence (as listed by the source): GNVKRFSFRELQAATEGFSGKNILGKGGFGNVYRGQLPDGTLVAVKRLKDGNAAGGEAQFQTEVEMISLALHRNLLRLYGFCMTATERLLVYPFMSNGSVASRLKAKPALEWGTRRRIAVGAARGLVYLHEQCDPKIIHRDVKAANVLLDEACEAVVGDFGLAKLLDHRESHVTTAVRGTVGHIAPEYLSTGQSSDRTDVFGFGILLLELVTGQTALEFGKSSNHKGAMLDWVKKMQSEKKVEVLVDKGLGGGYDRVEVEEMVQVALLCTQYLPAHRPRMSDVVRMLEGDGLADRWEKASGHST
Field format: number, assumed °C, no unit text.

CC(C)N(CCC(=O)c1ccc2ccccc2c1)Cc1ccccc1	-1.31

Query string: For CC(C)=CC[C@@H](O)C1=CC(=O)c2c(O)ccc(O)c2C1=O [Shikonin] , what is its reported thermal shift delta Tm?
Result string: -1.68

Query string: Return reported thermal shift delta Tm; argument: O=c1cc(-c2ccccc2)oc2c(O)c(O)ccc12 [7,8-Dihydroxyflavone]
Result string: 1.88

Query string: Entry `C[C@@H]1COCCN1c1cc(=O)n2c(n1)N(Cc1cncc(Cl)c1)[C@H](C(F)(F)F)CC2` : reported thermal shift delta Tm = ?
Result string: -0.04

Query string: Recorded thermal shift delta Tm of `CN1CCN(c2ccc(OC(F)(F)F)c(Nc3ncc4c(n3)-c3c(c(C(N)=O)nn3CCO)CC4)c2)CC1` , please.
Result string: 0.46

----------
tested on: LOC_OS02G14120-cb001; assay: thermal shift delta Tm vs DMSO control; higher = stronger stabilization (binding); settings: 12.5 µM; protein concentration 2 µM
Where a name gives a salt, the structure may show the parent alone.
Bucketed by reported thermal shift delta Tm, buckets being Low = under 0.2 °C, Mid = from 0.2 °C up to 4 °C, High = 4 °C and over

Query string: Into which bin does this molecule go? O=C(Nc1cccc(Cl)c1)Nc1ncc(CCNc2ncnc3ccsc23)s1 [SNS-314 Mesylate]
Result string: High

Query string: Please classify: `O=C(NC[C@H](O)CO)c1ccncc1Nc1ccc(I)cc1F`
Result string: Low

Query string: Form field 'band' for O=c1c(-c2ccc(O)cc2)coc2cc(O)cc(O)c12 [Genistein]
Result string: Low

----------
system: LOC_OS03G12390-cb001; assay: thermal shift delta Tm vs DMSO control; higher = stronger stabilization (binding); conditions: 12.5 µM; protein concentration 2 µM
Each entry gets 0 if its thermal shift delta Tm stays under 0.2 °C, and 1 if its thermal shift delta Tm is 0.2 °C or above.

// known answers, use as guide
C[C@@H]1COC(Nc2ccc3ncnc(Nc4ccc(OCc5nccs5)c(Cl)c4)c3c2)=N1	0
C#Cc1cccc(Nc2ncnc3cc4c(cc23)OCCOCCOCCO4)c1	1
Cn1cc(/C=C2\C(=O)Nc3cccnc32)c2ccccc21	1
Cn1cnc2c(F)c(Nc3ccc(Br)cc3F)c(C(=O)NOCCO)cc21	0
C[C@@H]1CN(C(=O)c2ccc(NC(=O)c3cc(O[C@H](C)c4c(Cl)ccc(F)c4Cl)c(N)nn3)cc2)C[C@H](C)N1	1
CCn1c(-c2nonc2N)nc2c(C#CC(C)(C)O)ncc(OC[C@H]3CCCNC3)c21	0

Query string: Tell me whether thermal shift delta Tm is at least 0.2 °C here: `Cn1c(=O)c(Oc2ccc(F)cc2F)cc2cnc(NC(CCO)CCO)nc21`
Result string: 0

Query string: Does `COc1cc(Nc2ncc3c(n2)-c2ccc(Cl)cc2C(c2c(F)cccc2OC)=NC3)ccc1C(=O)O` have a reported thermal shift delta Tm of at least 0.2 °C?
Result string: 0

Query string: Say whether `CS(=O)(=O)N1CCc2c(-c3cnc(N)nc3)nc(N3CCOCC3)nc21` shows thermal shift delta Tm of 0.2 °C or more.
Result string: 1

Query string: In plain terms: is recorded thermal shift delta Tm at least 0.2 °C for `CN(C)C[C@@H]1CCn2cc(c3ccccc32)C2=C(C(=O)NC2=O)c2cn(c3ccccc23)CCO1` ?
Result string: 0

Query string: Given the entry `CN(C)C/C=C/C(=O)Nc1cc2c(Nc3ccc(F)c(Cl)c3)ncnc2cc1O[C@H]1CCOC1` , answer whether its thermal shift delta Tm meets or surpasses 0.2 °C.
Result string: 1

Query string: thermal shift delta Tm >= 0.2 °C for `O=C(NOCC1CC1)c1ccc(F)c(F)c1Nc1ccc(I)cc1Cl` ?
Result string: 1

Query string: Could you please find out whether `CO[C@H]1C[C@@H]2CC[C@@H](C)[C@@](O)(O2)C(=O)C(=O)N2CCCC[C@H]2C(=O)O[C@H]([C@H](C)C[C@@H]2CC[C@H](n3cnnn3)[C@H](OC)C2)CC(=O)[C@H](C)/C=C(\C)[C@@H](O)[C@@H](OC)C(=O)[C@H](C)C[C@H](C)/C=C/C=C/C=C/1C` has thermal shift delta Tm that meets 0.2 °C or exceeds it?
Result string: 0

Query string: Check the entry `COc1cc2c(cc1OC)[C@@H]1C(=O)c3ccc4c(c3O[C@@H]1CO2)C=CC(C)(C)O4` : does thermal shift delta Tm equal or exceed 0.2 °C?
Result string: 0

Query string: // inclusive: thermal shift delta Tm at least 0.2 °C? input: `N#Cc1c(NC(=O)c2cccc3ccccc23)sc2c1CCCC2`
Result string: 0

The values you see were collected from the supplement of paper PMC9694430.
